From: the supplement of paper PMC9170038

- System: MS2 coat protein
- ASSAY NOTES: apparent KD of MS2 coat protein; higher = weaker reporter binding
- CONDITIONS USED: Eterna round: R107; input ligand: tryptophan 2.4 mM
MEASURE: apparent KD of MS2 coat protein (nM)
Answers are plain numbers, in nM.

Worked set:
>  <SEQUENCE INPUT>
GUCUUGGGAUCGGCCGCCACUACAUGAGGAUCACCCAUGUGGACAAAUAGGGUUGUUAAGCUCGGUAGGACCGGGAUUCGGACAU [Oncetexeza]

>  <apparent KD of MS2 coat protein / nM>
111

$$$$
>  <SEQUENCE INPUT>
UUGGUACGACAGCUCAUAUAAGCAUGUGAUACCAGACUGGAAACAGUCCCUUGGCAGCACUUUACAUGAGGAUCACCCAUGUCGG [EThA NP+V+V2 #3 +-Same Structure]

>  <apparent KD of MS2 coat protein / nM>
212

$$$$

Your task in this section: give apparent KD of MS2 coat protein for each listed record.
1. UUCAGCUAGUCGGCCGCCACUACCUGAGGAUCACCCUGGUAGGUCCACACUGCUUCGGCAGUGAGUAGGACCGGGACUAGCUGAG
2. AAAAUCCUACCUGAGGAUCACCCGGGUGAAGGAGCGCCCGAAAGGGCAGGUAGGUCGCACCUGAGGAUCACCCUGGUAACCUAAA [ArgEX 12 #DoubleMS2 #OpenEnded #AlternativeMS2]
3. UACAUGAGGAUCACCCAUGUAUUGCCGGUACGAGGACCGGUACGGCCGCCACUCGGGACAUGAGGAUCACCCAUGUGCUGCUAUU [Same State Trypophan A GF 23]

Result string:
1: 52.7; 2: 159; 3: 45.8

Query CCUCGGGACCGAAGGAGCGAGAUAACAACAAUGGGUCUCUACACAUGAGGAUCACCCAUGUCUCAGGUAGGUCGCGGUACCUUAG [Exclusion Arginine B GF23] yields apparent KD of MS2 coat protein of 238
